Test system: K-562 leukemia
Protocol summary: NCI tumour cell line growth inhibition, 48 h
Recorded endpoint: TGI

* O=C1c2c(c3c4ccccc4n(CCCCCCBr)c3c3[nH]c4ccccc4c23)C(=O)N1O | 10.2 µM
* CCN(CC)CCc1c2c(nc3ccccc13)C(=O)c1cccnc1C2=O | 4.23 µM
* CCCCN(CCCC)C(=O)C(=O)C(C#N)c1ccc(C)cc1 (centres undefined) | > 100 µM

We now examine a further molecule.
Ask: Please report TGI for the following molecule: CCCCCCCCCCCCCCCCCCNc1ccn(C2OC(COP(=O)(O)OCC3OC(n4ccc(NC(=O)CCCCCCCCCCCCCCCCC)nc4=O)C(OC(C)=O)C3OC(C)=O)C(OC(C)=O)C2OC(C)=O)c(=O)n1 (centres undefined)
Reply: > 100 µM

----------
Listed here are molecules together with their documented GI50.
Test system: CAKI-1 renal
Protocol summary: NCI tumour cell line growth inhibition, 48 h

These solved cases illustrate the format of a correct answer.
- N#CSCC1CC(O)(c2ccccc2)C(c2ccccc2)C(c2ccc(Cl)cc2)O1 (centres undefined): 1.67 µM
- COc1cc2c3c(n(C)c(=O)c2cc1OC)-c1cc2c(cc1/C3=C\CCCN1C(=O)c3ccccc3C1=O)OCO2: 5.44 µM
- CC1OC(O[C@H]2C[C@@H](O)[C@]3(CO)[C@H]4[C@H](O)C[C@]5(C)[C@@H](C6=CC(=O)OC6)CC[C@]5(O)[C@@H]4CC[C@]3(O)C2)C(O)C(O)C1O (some centres undefined): 17.7 µM
- Cc1ccc2c(c1)C(=O)/C(=C/c1ncc([N+](=O)[O-])n1C)O2: 0.665 µM

We now examine a further molecule.
Ask: Report value: GI50, system: CAKI-1 renal, molecule: N#C/C(=C1C=C/C(=N/O)C(Br)=C/1)c1ccccc1
Reply: 0.7 µM

----------
Tested on: SW-620 colon
Protocol summary: NCI tumour cell line growth inhibition, 48 h
Where a SMILES comes first, the peptide text is derived from it. The star is where a group is joined. Boc = CC(C)(C)OC(=O)*
Recorded endpoint: TGI

These solved cases illustrate the format of a correct answer.
• O=C1C(Cl)=C(N2CCN(C3=C(Cl)C(=O)c4ccccc4C3=O)CC2)C(=O)c2ccccc21 = 2.68 µM
• C/C(CCOC1CCCCO1)=C(\C)[Si](C)(C)C (centres undefined) = > 100 µM

Ask: Please report TGI for the following compound: N#Cc1ccc(C#Cc2ccccc2C#CCCCCO)cc1
Reply: 35 µM

Ask: Please report TGI for the following compound: Cc1ccc(CS/C(=C\c2ccc([N+](=O)[O-])cc2)C(=O)c2ccc(F)cc2)cc1
Reply: 3.71 µM

Ask: Please report TGI for the following compound: COc1ccccc1Nc1nc(N)nc(N)c1N=O
Reply: > 100 µM

Ask: Please report TGI for the following compound: CC1=C(C(=O)Nc2ccc([N+](=O)[O-])cc2)C(c2ccc(N(C)C)cc2)C(C(=O)Nc2ccc([N+](=O)[O-])cc2)=C(C)N1
Reply: 69.8 µM

Ask: Please report TGI for the following compound: COc1ccc(CNc2cc(OC)c(OC)c(OC)c2)cc1
Reply: > 100 µM

Ask: Please report TGI for the following compound: Cc1ccc([C@@H]2[C@@H](C(=O)c3ccccn3)[C@H](c3ccc(C)cc3)C[C@](O)(c3ccccn3)[C@H]2C(=O)c2ccccn2)cc1
Reply: > 100 µM

Ask: Please report TGI for the following compound: CC12CC[C@@H](C(C)(C)O)C1[C@@H](O)CC1(C)C2CCC2[C@@]3(C)CC[C@H](O)C(C)(C)C3C(O)C[C@]21C (some centres undefined)
Reply: 39 µM

Ask: Please report TGI for the following compound: CC[CH2][Pb]([CH2]CC)([CH2]CC)[O]C(=O)C(F)(F)F
Reply: 0.253 µM

Ask: Please report TGI for the following compound: Nc1ccn(C2O[C@H](CO)[C@@H](O)[C@@H]2O)c(=O)n1 (some centres undefined)
Reply: > 100 µM

Ask: Please report TGI for the following compound: COC(=O)C[C@H]1CCC2(OCCO2)[C@]1(C)C(=O)OC
Reply: > 100 µM

Ask: Please report TGI for the following compound: NC(N)=NS(=O)(=O)c1ccc(NCc2c3ccccc3[n+]([O-])c3ccccc23)cc1
Reply: > 100 µM

Ask: Please report TGI for the following compound: CCOC(=O)CCc1cc(=O)oc2cc(O)cc(O)c12
Reply: > 100 µM

Ask: Please report TGI for the following compound: Cn1c(N2NC(=O)C(N=Nc3ccc(S(N)(=O)=O)cc3)C2=O)nc(-c2ccco2)c(C#N)c1=O (centres undefined)
Reply: 28.6 µM

Ask: Please report TGI for the following compound: COC(=O)CNC(=O)C(Cc1ccccc1)NC(=O)C(CCSC)NC(=O)C(Cc1ccc(O)cc1)NC(=O)OC(C)(C)C (centres undefined) (Boc-YMFG-OMe; configuration not given here)
Reply: > 100 µM

Ask: Please report TGI for the following compound: CC1(O)CC(C(F)(F)F)(C(F)(F)F)OC1=O (centres undefined)
Reply: > 10 µM

Ask: Please report TGI for the following compound: CC1=C(CCCNS(C)(=O)=O)C2=C(C)C3(CC3)[C@@](C)(O)C(=O)C2=C1
Reply: > 100 µM

Ask: Please report TGI for the following compound: CCCCCCCCCCCC(=O)CC(=O)c1c(O)cccc1O
Reply: 31 µM

----------
Test system: ACHN renal
Protocol summary: NCI tumour cell line growth inhibition, 48 h
Listed here are compounds together with their documented TGI.

- CC(C)=CCOC(=O)C(C)=[N+]=[N-]: > 100 µM

Ask: Please report TGI for the following compound: CC[CH2][Pb]([CH2]CC)([CH2]CC)[O]C(=O)C(F)(F)F
Reply: 0.458 µM

Ask: Please report TGI for the following compound: CC(=O)Nc1ccccc1Sc1ccccc1
Reply: > 100 µM

Ask: Please report TGI for the following compound: COc1cc2c3c(n(C)c(=O)c2cc1OC)-c1cc2c(cc1/C3=C\CCCN1C(=O)c3ccccc3C1=O)OCO2
Reply: > 40 µM

Ask: Please report TGI for the following compound: COc1ccc(C2CC(c3c(O)ccc4ccccc34)=NN2c2ccc([N+](=O)[O-])cc2[N+](=O)[O-])cc1OC (centres undefined)
Reply: 92.2 µM

Ask: Please report TGI for the following compound: CCCCCCCCCCCCCCCCCCNc1ccn(C2OC(COP(=O)(O)OCC3OC(n4ccc(NC(=O)CCCCCCCCCCCCCCCCC)nc4=O)C(OC(C)=O)C3OC(C)=O)C(OC(C)=O)C2OC(C)=O)c(=O)n1 (centres undefined)
Reply: > 100 µM

----------
Tested on: NCI-H226 lung
Protocol summary: NCI tumour cell line growth inhibition, 48 h
Listed here are compounds together with their documented GI50.

These solved cases illustrate the format of a correct answer.
* COc1ccc(C2=NN(C(=O)c3cc(OC)c(OC)c(OC)c3)C(c3ccc(C#N)cc3)C2)cc1OC (stereo not given) | 2.84 µM
* CN(C)CCNc1cc(-c2ccccc2)nc2ccccc12 | 5.98 µM
* O=C1c2c(c3c4ccccc4n(CCCCCCBr)c3c3[nH]c4ccccc4c23)C(=O)N1O | 3.7 µM
* CCOc1cccc(/C=N/NC(=O)c2ccccc2Nc2ccnc(C(F)(F)F)c2)c1O | 0.664 µM
* Cn1c(N2NC(=O)C(N=Nc3ccc(S(N)(=O)=O)cc3)C2=O)nc(-c2ccco2)c(C#N)c1=O (stereo not given) | > 50 µM
* CSc1ccc(C2=NN(C(C)=O)C(c3cc(C)cs3)C2)cc1 (stereo not given) | 21.8 µM
* COC(=O)c1cc2c3ccccc3[nH]c2c2ncccc12 | > 100 µM
* C=C(CN1CCc2ccccc2C1)c1ccc(C(=O)Nc2cnccn2)cc1 | > 100 µM

Ask: Please report GI50 for the following compound: Cc1ccc(S(=O)(=O)N(CCOc2ccc(/C(N)=N/Cl)cc2)CCOc2ccc(/C(N)=N\Cl)cc2)cc1
Reply: 59.6 µM

Ask: Please report GI50 for the following compound: COc1cccc(/C=N/NC(=O)c2ccccc2Nc2ccnc(C(F)(F)F)c2)c1O
Reply: 0.571 µM

Ask: Please report GI50 for the following compound: COC(=O)CCCCN=Cc1c(O)c(O)c(C(C)C)c2cc(C)c(-c3c(C)cc4c(C(C)C)c(O)c(O)c(C=NCCCCC(=O)OC)c4c3O)c(O)c12
Reply: 1.3 µM

Ask: Please report GI50 for the following compound: COc1ccc(/C(=C2\O[C@@H]([C@H]3COC(C)(C)O3)[C@H]3OC(C)(C)O[C@@H]23)c2cc(OC)c(OC)c(OC)c2)cc1O
Reply: 25.9 µM

----------
System: SF-539 CNS
Protocol summary: NCI tumour cell line growth inhibition, 48 h
Recorded endpoint: TGI

• CC1(C)CC(/C=C2/OC(=O)c3ccccc32)=C(C#N)C(=O)O1 = > 100 µM
• CCOC(=O)NC(=O)c1cn(C2OC(COC(=O)CCCCCCCCC(=O)OCC3OC(n4cc(C(=O)NC(=O)OCC)c(=O)[nH]c4=O)C(O)C3O)C(O)C2O)c(=O)[nH]c1=O (stereo not given) = > 100 µM
• Cc1nc2cccc([N+](=O)[O-])c2c(NCCCN(C)C)c1C = > 100 µM

Ask: Report value: TGI, system: SF-539 CNS, molecule: CNC(=O)OCc1c(COC(=O)NC)c(-c2ccc(Cl)c(Cl)c2)n2c1SCC2
Reply: 26.9 µM
